These entries and their values trace back to patent US6875770B2.

system-under-test: Human COX-2 (Homo sapiens)
Construct: 500 μl of peripheral blood collected from a healthy volunteer; endogenous in cells
Sequence (P35354 18-604): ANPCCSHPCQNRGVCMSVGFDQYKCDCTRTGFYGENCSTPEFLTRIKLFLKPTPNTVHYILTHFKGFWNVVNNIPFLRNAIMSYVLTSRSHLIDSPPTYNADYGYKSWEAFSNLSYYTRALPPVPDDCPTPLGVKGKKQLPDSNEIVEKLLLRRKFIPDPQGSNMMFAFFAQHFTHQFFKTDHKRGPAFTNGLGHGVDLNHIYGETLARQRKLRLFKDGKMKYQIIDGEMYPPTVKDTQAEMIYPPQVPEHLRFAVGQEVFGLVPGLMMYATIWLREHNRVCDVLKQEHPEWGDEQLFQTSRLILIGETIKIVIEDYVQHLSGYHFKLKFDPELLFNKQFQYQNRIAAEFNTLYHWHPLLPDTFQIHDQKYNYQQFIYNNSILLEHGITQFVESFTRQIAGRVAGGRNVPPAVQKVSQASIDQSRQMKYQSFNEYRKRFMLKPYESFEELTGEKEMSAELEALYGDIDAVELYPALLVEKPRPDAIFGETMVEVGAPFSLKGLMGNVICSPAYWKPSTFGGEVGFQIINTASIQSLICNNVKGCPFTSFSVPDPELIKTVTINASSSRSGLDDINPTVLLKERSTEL
test: Inhibitory activity against human COX-2 using peripheral blood (LPS-stimulated, thromboxane B2 EIA)
run-parameters: LPS 10 μg/ml, 37° C. 5 hours
pIC50: −log10 of the molar value.
recorded-metric: pIC50

{"mol": "CS(=O)(=O)c1cnc2c(c1)cc(-c1nnco1)n2Cc1ccc(F)cc1", "measured-value": 6.70}
{"mol": "CS(=O)(=O)c1ccc2c(c1)cc(-c1ccco1)n2Cc1ccc(F)cc1", "measured-value": 6.10}
{"mol": "CS(=O)(=O)c1ccc2c(c1)cc(C1=CCOCC1)n2Cc1ccc(F)cc1", "measured-value": 7.00}
{"mol": "CS(=O)(=O)c1ccc2c(c1)cc(-c1ccco1)n2CC1CCCCC1", "measured-value": 5.70}
{"mol": "CNC(=O)c1ccc(-c2cc3cc(S(C)(=O)=O)ccc3n2Cc2ccc(F)cc2)nc1", "measured-value": 6.10}
{"mol": "CS(=O)(=O)c1cnc2c(c1)cc(-c1ncco1)n2Cc1ccc(F)cc1", "measured-value": 6.52}
